- experiment summary: C max value was evaluated
- Format: ADME, organism-based
- assay setup: in vivo
outcome measure: Cmax

Which value of Cmax has been reported for `Cc1c(C(=O)Nc2ccc(C(F)(F)F)cc2)cnn1-c1ccc(F)cc1` in the records?
460 ng/mL

Sample `Cc1c(C(=O)N(CC(=O)O)c2ccc(C(F)(F)F)cc2)cnn1-c1ccc(F)cc1` — what was its Cmax?
4450 ng/mL

---

- Organism: Homo sapiens
- experiment summary: Compound was tested for immunosuppressant activity using human mixed leukocyte response(HMLR) assay.
- Format: functional
outcome measure: IC50 (nM)
The response must be a number in nM with no trailing unit.

Quick one: IC50 for `Cc1c(C(=O)Nc2ccc(F)cc2)cnn1-c1ccc(F)cc1` ?
2400

---

- Species on record: Homo sapiens
- experiment summary: Immunosuppressant activity using human mixed leukocyte response (HMLR).
- Assay type: functional
Note to self: IC50 under 2000 nM means Fulfilled, ties and anything higher get Not fulfilled.

# strict comparison: is reported IC50 < 2000 nM? input = `Cc1cccc(-n2ncc(C(=O)Nc3ccc(C(F)(F)F)cc3)c2C)c1`
Not fulfilled

Consider `Cc1c(C(=O)Nc2ccc(C(F)(F)F)cc2)cnn1-c1ccc(F)c(Cl)c1` . Does its IC50 lie strictly below 2000 nM?
Fulfilled

Is 2000 nM strictly greater than the compound's reported IC50? compound: `Cc1c(C(=O)Nc2ccc(C(F)(F)F)cc2)cnn1-c1ccccc1F`
Fulfilled

I wonder whether `COc1cccc(NC(=O)c2cnn(-c3ccc(F)cc3)c2C)c1` has IC50 below 2000 nM. Can you tell?
Not fulfilled

State whether 2000 nM exceeds IC50 recorded for `Cc1ccc(NC(=O)c2cnn(-c3ccc(F)cc3)c2C)cc1` .
Fulfilled

Dear reviewer, please state whether `Cc1ccccc1NC(=O)c1cnn(-c2ccc(F)cc2)c1C` has IC50 strictly beneath 2000 nM.
Fulfilled

Please let me know if `Cc1cc(C)cc(-n2ncc(C(=O)Nc3ccc(C(F)(F)F)cc3)c2C)c1` shows IC50 below 2000 nM.
Not fulfilled

Lab note: IC50 threshold 2000 nM. Does this compound come in strictly under it? `Cc1c(C(=O)Nc2cccc(F)c2)cnn1-c1ccc(F)cc1`
Not fulfilled

is_below(IC50, 2000 nM) for Cc1oncc1C(=O)Nc1ccc(C(F)(F)F)cc1 [LEFLUNOMIDE] ?
Not fulfilled

Lab note: IC50 threshold 2000 nM. Does this compound come in strictly under it? `Cc1c(C(=O)Nc2ccc(C(F)(F)F)cc2)cnn1-c1ccccc1`
Not fulfilled

Field: below-cutoff. Rule: recorded IC50 strictly less than 2000 nM. Subject: `Cc1c(C(=O)Nc2cccc(C(F)(F)F)c2)cnn1-c1ccc(F)cc1`
Fulfilled

Quick check: does `Cc1c(C(=O)Nc2ccc(C(F)(F)F)cc2)cnn1-c1cccc(Cl)c1Cl` have IC50 under 2000 nM?
Fulfilled

hey, is IC50 for `COc1ccc(-n2ncc(C(=O)Nc3ccc(C(F)(F)F)cc3)c2C)cc1` lower than 2000 nM or not?
Fulfilled

Identify whether the compound `Cc1ccccc1-n1ncc(C(=O)Nc2ccc(C(F)(F)F)cc2)c1C` records IC50 below 2000 nM.
Fulfilled

Lab log: compare recorded IC50 with 2000 nM; is it strictly lower for `Cc1c(C(=O)Nc2ccc(C(F)(F)F)cc2)cnn1-c1ccc([N+](=O)[O-])cc1` ?
Not fulfilled

hey, is IC50 for `Cc1c(C(=O)Nc2ccc(C(F)(F)F)cc2)cnn1-c1cccc(F)c1` lower than 2000 nM or not?
Not fulfilled

Identify whether the compound `Cc1c(C(=O)Nc2ccc(C(F)(F)F)cc2)cnn1CCc1ccc(F)cc1` records IC50 below 2000 nM.
Not fulfilled

Does `Cc1c(C(=O)Nc2ccc(C(F)(F)F)cc2)cnn1-c1ccc(Cl)cc1` have IC50 strictly under 2000 nM?
Fulfilled

Lab log: compare recorded IC50 with 2000 nM; is it strictly lower for `Cc1c(C(=O)Nc2ccccc2F)cnn1-c1ccc(F)cc1` ?
Not fulfilled
